Target: SARS-CoV-2 spike protein bearing furin mutation and truncation in retention sequence, on pseudovirus (SARS-CoV-2, UniProt P0DTC2 14-1255)
Assay: cell-based or functional assay
OBSERVATION_TYPE: pseudovirus neutralisation IC50 (nM)

{"columns": ["BINDER", "QUANTITATIVE_READOUT"],
 "data": [
  ["YANG-2107 (antibody, V domains shown) VH: QVQLQESGPGLVKPSGTLSLTCAVSGGSIRSSNWWIWVRQSPGKGLEWIGEIYHGGNTNYNPSLKSRVTLSVDKSKNQFSLKLSSVTAADTAVYYCARALYDIGGVFDIWGQGTMVTVSS VL: QSALTQPASVSGSPGQSISISCTGTSSDIGGYNYVSWYQQHPGKAPKLMIYDVSERPSGVSNRFSGSKSGNTASLTISGLQAEDEGDYYCCSYAANSNVVFGGGTKLSVL", 0.3],
  ["YANG-2301 (antibody, V domains shown) VH: QVHLIQSGAEVKKPGASVKVSCKVSGYTLIEVSVHWVRQAPGKGLEWMGGFDPEAAETIYAQKFQGRVTMTEDTSTDTAYMDLSSLKSEDSAVYYCAIGPAVTGRNSGEYYYYYGMDVWGQGTTVTVAS VL: EIVMTQSPATLSVSPGERATLSCRASQSVNSNLAWYQQKPGQAPRLLIYAVSTRATGLPARFSGSGSGTEFTLTISSLQSEDFVVYYCHQYNNWPLTFGGGTKVEIK", 0.53]
]}
